target: AbCGT V183E (Aloe vera, UniProt A0A7G9P699, V183E); experiment: Glycosyltransferase activity of AbCGT variant V183E; assay type: biochemical, Aloe barbadensis; conditions: reaction-3
measured.metric: V183E/yield of O-glycoside(%)

compound	numeric.value
CC(=O)c1ccc(O)cc1O [Compound 6, 2,4-dihydroxyacetophenone]	0
COc1cc(O)c(C(C)=O)c(OC)c1	0
CC(=O)c1c(O)cc(C)cc1O	0
Oc1cc(O)cc(OCCCCCCc2ccccc2)c1	0
CC(=O)c1c(O)cccc1O	0
CC(=O)c1ccc(O)cc1	0

###

Target: AbCGT V183E (Aloe vera, UniProt A0A7G9P699, V183E)
Sequence (A0A7G9P699 1-470 V183E): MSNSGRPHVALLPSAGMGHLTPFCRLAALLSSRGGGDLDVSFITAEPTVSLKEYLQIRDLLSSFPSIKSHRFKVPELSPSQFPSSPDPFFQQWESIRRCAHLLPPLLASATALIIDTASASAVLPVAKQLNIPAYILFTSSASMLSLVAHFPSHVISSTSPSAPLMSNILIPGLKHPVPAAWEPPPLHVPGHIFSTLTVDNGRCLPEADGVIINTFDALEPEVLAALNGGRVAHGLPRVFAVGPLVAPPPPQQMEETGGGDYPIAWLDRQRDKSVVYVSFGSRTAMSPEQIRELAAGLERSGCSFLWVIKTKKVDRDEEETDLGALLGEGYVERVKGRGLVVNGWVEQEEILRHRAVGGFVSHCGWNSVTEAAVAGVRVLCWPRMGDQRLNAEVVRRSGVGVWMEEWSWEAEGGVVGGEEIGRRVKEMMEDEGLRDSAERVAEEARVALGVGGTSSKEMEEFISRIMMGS
Test: Glycosyltransferase activity of AbCGT variant V183E
Type: biochemical, Aloe barbadensis
Conditions: reaction-1
Procedure: The reaction mixture contained 0.5 mM sugar donors (1.0 mM for di-glycosylation), 0.25 mM aglycons, 50 mM Tris-HCl (pH 7.4), and 50‒100 μg of purified AbCGT in a final volume of 100 μL. […] Subsequently, samples were centrifuged at 15,000 × g for 30 min to collect the supernatant, and aliquots were analyzed by HPLC-UV/ESIMS. […] The conversion rates of the enzyme reactions were calculated from peak areas of glycosylated products and substrates as analyzed by HPLC. […]
Overview of reported V183E/yield of C-glycoside(%) across a group of molecules:

molecule	V183E/yield of C-glycoside(%)
Oc1cc(O)cc(OCCCCCCc2ccccc2)c1	0
CC(=O)c1ccc(O)cc1	0
COc1cc(O)c(C(C)=O)c(O)c1	5.7
CC(=O)c1c(O)cc(C)cc1O	11.1
COc1cc(O)c(C(C)=O)c(OC)c1	8
CC(=O)c1cccc(O)c1	0
CC(=O)c1cc(O)cc(O)c1 [Compound 4, 3,5-dihydroxyacetophenone]	0
CC(=O)c1c(O)cccc1O	0

###

Overview of reported relative activity across a group of compounds:
test system: AbCGT; assay: Effects of pH, temperature and divalent metal ions on AbCGT activity (phloretin 17 + UDP-Glc); assay type: biochemical, Aloe barbadensis; conditions: in presence of the divalent cation or EDTA, relative to CK; reaction-3
measured.metric: relative activity

compound	numeric.value
O=C(O)CN(CCN(CC(=O)O)CC(=O)O)CC(=O)O [EDTA]	102.3
[Fe+2] [Fe2+]	18.0
[Cu+2] [Cu2+]	0.0
[Zn+2] [Zn2+]	1.9
[Ba+2].[Cl-].[Cl-] [Ba2+]	119.3
[Cl-].[Cl-].[Mg+2] [Mg2+]	167.6
[Ni+2] [Ni2+]	15.5
[Co+2] [Co2+]	43.9
[Cl][Mn][Cl] [Mn2+]	171.3
[Ca+2].[Cl-].[Cl-] [Ca2+]	139.4
